Collected IC50 values appear next to each entry.
# Test system: RBL-2H3
# PROTOCOL_DETAILS: Inhibition of DNP7-BSA antigen-induced TNFalpha release in rat RBL-2H3 cells
# Assay type: functional, cell-based
QUANTITY_MEASURED: IC50 (nM)

- COMPOUND: "O=C(Cc1ccccc1)Oc1c(-c2ccc(O)cc2)c(OC(=O)Cc2ccccc2)c2oc3cc(O)c(O)cc3c2c1OC(=O)Cc1ccccc1"
  UNIT_TAG: "nM"
  RECORDED_MEASUREMENT: 5000
- COMPOUND: "C=CC[C@@H]1/C=C(\\C)C[C@H](C)C[C@H](OC)[C@H]2O[C@@](O)(C(=O)C(=O)N3CCCC[C@H]3C(=O)O[C@H](/C(C)=C/[C@@H]3CC[C@@H](O)[C@H](OC)C3)[C@H](C)[C@@H](O)CC1=O)[C@H](C)C[C@@H]2OC [TACROLIMUS ANHYDROUS]"
  UNIT_TAG: "nM"
  RECORDED_MEASUREMENT: 0.25
- COMPOUND: "O=C(Cc1ccccc1)Oc1c(-c2ccc(O)cc2)c(O)c2oc3cc(O)c(O)cc3c2c1OC(=O)Cc1ccccc1"
  UNIT_TAG: "nM"
  RECORDED_MEASUREMENT: 0.02
- COMPOUND: "Oc1ccc(-c2c(O)c(O)c3c(oc4cc(O)c(O)cc43)c2O)cc1"
  UNIT_TAG: "nM"
  RECORDED_MEASUREMENT: 3500
